Molecular target: hGIPR (Homo sapiens)
Sequence (P48546 22-466): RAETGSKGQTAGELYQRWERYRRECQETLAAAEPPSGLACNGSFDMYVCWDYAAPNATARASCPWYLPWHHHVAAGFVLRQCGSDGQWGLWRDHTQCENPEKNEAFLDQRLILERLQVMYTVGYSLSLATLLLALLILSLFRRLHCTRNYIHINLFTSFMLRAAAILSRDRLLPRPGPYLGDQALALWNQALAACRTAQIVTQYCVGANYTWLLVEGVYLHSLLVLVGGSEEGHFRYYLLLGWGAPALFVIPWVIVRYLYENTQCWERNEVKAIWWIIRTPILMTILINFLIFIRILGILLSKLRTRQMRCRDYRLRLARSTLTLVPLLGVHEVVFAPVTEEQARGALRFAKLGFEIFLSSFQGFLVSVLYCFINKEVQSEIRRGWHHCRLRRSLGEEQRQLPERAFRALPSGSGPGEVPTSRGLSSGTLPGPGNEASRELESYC
Assay: Functional cAMP activation in the presence of 0.1% casein (no HSA);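 note: intracellular cAMP rise after 30 min at 37 °C read by HTRF against a standard curve, scaled between buffer alone (0%) and top control ligand concentration (100%), four-parameter fit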
Type: cell-based
Conditions: in the presence of 0.1% casein (no HSA); geometric mean; read-out: Relative cAMP EC50, hGIPR
Starred links: 1 amine or outer side, 2 acyl side, 3 side chain; linkers in the order of their positions; H or OH if unused. Non-standard residues stand in square brackets, D forms with d. Groups on a side chain read outwards from the residue. *: point of attachment. C20 diacid = O=C(O)CCCCCCCCCCCCCCCCCCC(=O)*; C18 diacid = O=C(O)CCCCCCCCCCCCCCCCC(=O)*; Phe(4-CN) = N#Cc1ccc(C[C@H](N)C(=O)O)cc1; αMePhe(2-F) = C[C@](N)(Cc1ccccc1F)C(=O)O; γGlu = O=C(O)[C@H](CCC(=O)[*:2])N[*:1]; αMe4Pal = C[C@](N)(Cc1ccncc1)C(=O)O; αMeY = C[C@](N)(Cc1ccc(O)cc1)C(=O)O; 4Pal = N[C@@H](Cc1ccncc1)C(=O)O; αMeL = CC(C)C[C@](C)(N)C(=O)O; αMeS = C[C@](N)(CO)C(=O)O; Orn = NCCC[C@H](N)C(=O)O; AEEA = NCCOCCOCC(=O)O; Aib = CC(C)(N)C(=O)O
# maps each entry to its pEC50
Would you please state pEC50, meaning minus log10 of the concentration in mol/L, as a bare number?

substance	pEC50
H-Y[Aib]QGTFTSD[4Pal]SQ[αMeL]LDKK([Glu-γGlu-Glu-C18 diacid])AQ[αMe4Pal]AFIEYLIE[Aib]GPSSGAPPPSGS-NH2 [Example 896]	9.92
H-Y[Aib]QGT[αMePhe(2-F)]TSD[4Pal][αMeS]I[αMeL]LD[Orn]K([AEEA-γGlu-C18 diacid])AQ[αMe4Pal]EFI[dE][αMeY]LVEGGPSSGAPPPEGE-NH2 [Example 1158]	10.90

*Q* Give the value of pEC50 reported for the following: H-Y[Aib]QGTFTSDFSK[αMeL]LDKK([AEEA-γGlu-C20 diacid])AQ[Aib]AFIEYLLAGGPSSGEPPPSSG-NH2 [Example 7]
*A* 9.69

*Q* Give the value of pEC50 reported for the following: H-Y[Aib]QGT[αMePhe(2-F)]TSD[Phe(4-CN)]SILLDKQAQK([AEEA-AEEA-γGlu-C20 diacid])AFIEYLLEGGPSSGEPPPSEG-NH2 [Example 321]
*A* 10.04

*Q* Give the value of pEC50 reported for the following: H-Y[Aib]QGTFTSD[4Pal]SQ[αMeL]LDKK([AEEA-γGlu-C18 diacid])AQ[αMe4Pal]AFIEYLIE[Aib]GPSSGAPPPSG[4Pal]-NH2 [Example 835]
*A* 9.42
